Just for reference, PubChem BioAssay is where these values come from.

# Assay: compounds binding Alexa647 anti-His antibody – biochemical, small-molecule microarray, 635 nm fluorescence, artefact control for SMM control protein annotation, primary screen (AID 1128);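 also: score merges feature fluorescence with signal-to-noise for each printed compound spot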
# Cond: higher = more signal
Endpoint: composite z-score
Lab note: record the figure alone, no unit after it.

Worked examples, 5 compounds total:
Compound: CCCCC(=C=CC[C@@H](O)c1ccc(CO)o1)CCO
composite z-score: 1.05
--
Compound: C=CCOC(=O)[C@H]1[C@@H]2C(=O)O[C@@H](c3ccccc3)[C@@H](c3ccccc3)N2[C@@H](c2ccc(OCCOC(=O)[C@H]3C[C@H]4C(=O)N[C@@H](CCCCN(C)C)C(=O)N4[C@H]3c3cccc(OCCO)c3)cc2)[C@]12C(=O)Nc1ccc(I)cc12
composite z-score: 0.977
--
Compound: C=CCNC(=O)[C@H]1[C@@H]2C(=O)O[C@@H](c3ccccc3)[C@@H](c3ccccc3)N2[C@@H](c2ccc(OCCO)cc2)[C@]12C(=O)Nc1ccc(C#CCC(C(=O)OC)C(=O)OC)cc12
composite z-score: 2.47
--
Compound: CCOC(=O)[C@H]1C/C=C/C[C@H](C(=O)OCC)C(=O)O[C@H]2[C@@H](OC)O[C@H](CO)[C@@H](OC(=O)c3ccc(Br)cc3)[C@@H]2OC1=O
composite z-score: 0.272
--
Compound: O=C1[C@H]2C=C(Br)[C@H](C[C@@H]2OCCCCCCO)[C@@]12CO2
composite z-score: -0.847

Using the record for COCCCNC(=O)[C@@]1(CCS(=O)(=O)c2ccccc2)N=C(c2ccc(OCCCO)cc2)O[C@H]1c1ccccc1N=[N+]=[N-] , report its composite z-score.
0.328

# query: composite z-score of entry [N-]=[N+]=Nc1ccccc1C[C@]1(C(=O)N2CCCCC2)COC(c2ccc(OCCCO)cc2)=N1
1.33

Given CN(C)C(=O)[C@]1(Cc2ccccc2)N=C(c2ccc(OCCCO)cc2)O[C@@H]1c1ccccc1N=[N+]=[N-] , state its recorded composite z-score.
2.47

Returns the measured composite z-score for the input compound. Input: C[C@H]1C2[C@H](Cc3ccccc3)NC(=O)[C@]23C(=O)NCC(=O)N2CCC[C@H]2C(=O)NC/C=C/CCC/C=C/C3[C@@H]2O[C@]12C (some centres undefined)
0.295

composite z-score lookup needed for COc1ccc(C#Cc2ccc3c(c2)[C@]2(C(=O)N3)[C@H](c3ccc(O)cc3)N3[C@H](c4ccccc4)[C@H](c4ccccc4)OC(=O)[C@H]3[C@@H]2C(=O)N2CCc3cc(OC)c(OC)cc3C2)cc1 , thanks.
0.645

Which measured composite z-score value corresponds to CC(C)(C)OC(=O)CC[C@]1(C(=O)NCCN2CCOCC2)COC(c2ccc(OCCCO)cc2)=N1 ?
1.34

Sample O[C@@H](Cc1ccccc1)[C@@H](/C=C/C1CC1)NCc1cccc(Cl)c1 — what was its composite z-score?
0.183

Requested read-out: composite z-score. Entry: CC1CC/C=C\[C@H]2OC34C=CCN(c5ccc6ccccc6c5)C(=O)[C@H]3N(CCO)C(=O)[C@@H]4C2C(=O)O1 (some centres undefined)
-0.9

So what does the record say about composite z-score for CCOc1ccc(N2C(=O)CSC2c2cccc([N+](=O)[O-])c2)cc1 (centres undefined) ?
0.798
